Every entry's value here was drawn from patent US9815851B2.

target: RORγ (UniProt P51449); test: RORγ Gal4 Reporter Gene Assay in 293T cells (firefly and renilla luciferase); assay type: cell-based, human; settings: second value of the cell; Gal4 reporter gene assay in 293T cells, firefly luciferase

>  <compound>
Cc1c(C(=O)N2CCC(C(=O)O)CC2)cc(-c2cc(C(C)(C)C)c3c(c2)C2(CCO3)CC2)n1CC1CCCCC1

>  <pIC50 (FF)>
6.9

$$$$
>  <compound>
CCCNS(=O)(=O)c1ccc(-c2cc(C(=O)NC3CCOCC3)c(C)n2CC2CCCCC2)cc1C(F)(F)F

>  <pIC50 (FF)>
7.2

$$$$
>  <compound>
CC(C)(C)NS(=O)(=O)c1ccc(-c2cc(C(=O)NC3CCOCC3)c(Cl)n2CC2CCCCC2)cc1C(C)(C)C

>  <pIC50 (FF)>
7.6

$$$$
>  <compound>
Cc1c(C(=O)NC[C@@H](C)O)cc(-c2cc(C(C)(C)C)cc(C(C)(C)C)c2)n1CC1CCCCC1

>  <pIC50 (FF)>
6.3

$$$$
>  <compound>
Cc1c(C(=O)N[C@H]2C[C@H](C(=O)O)C2)cc(-c2cc(C3(C)CC3)nc(C(C)(C)C)n2)n1CC1CCCCC1

>  <pIC50 (FF)>
7.0

$$$$
>  <compound>
Cc1c(C(=O)N[C@H]2C[C@H](C(=O)O)C2)cc(-c2cc(C(C)(C)C)nc(C3(C)CC3)n2)n1CC1CCCCC1

>  <pIC50 (FF)>
7.2

$$$$
>  <compound>
Cc1c(C(=O)NC2CCOCC2)cc(-c2cc(NCC(C)(C)C)nc(C(F)(F)F)c2)n1CC1CCCCC1

>  <pIC50 (FF)>
6.8

$$$$
>  <compound>
Cc1c(C(=O)NC2C[S+]([O-])C2)cc(-c2cc(C(C)(C)C)cc(C(C)(C)C)c2)n1CC1CCCCC1 (centres unmarked)

>  <pIC50 (FF)>
7.0

$$$$
>  <compound>
Cc1c(C(=O)N[C@H]2C[C@H](C(=O)O)C2)cc(-c2cc(C(=O)NC(C)(C)C)cc(C3(C)CC3)c2)n1CC1CCCCC1

>  <pIC50 (FF)>
7.6

$$$$
>  <compound>
Cc1c(C(=O)NCC(O)C(F)(F)F)cc(-c2cc(C(C)(C)C)c3c(c2)C2(CCO3)CC2)n1CC1CCCCC1 (centres unmarked)

>  <pIC50 (FF)>
6.6

$$$$
>  <compound>
Cc1c(C(=O)NC2CCOCC2)cc(-c2ccc(S(=O)(=O)N3CCCCC3(C)C)c(C(F)(F)F)c2)n1CC1CCCCC1

>  <pIC50 (FF)>
7.2

$$$$
>  <compound>
Cc1c(C(=O)NCC2(C(=O)O)CCOCC2)cc(-c2ccc(S(=O)(=O)NC(C)(C)C)c(C(F)(F)F)c2)n1CC1CCCCC1

>  <pIC50 (FF)>
5.7

$$$$
>  <compound>
Cc1c(C(=O)NC2CCOCC2)cc(-c2ccc(S(=O)(=O)N[C@H](C)C(F)(F)F)c(C(F)(F)F)c2)n1CC1CCCCC1

>  <pIC50 (FF)>
7.4

$$$$

* * *

Biological target: RORγ (UniProt P51449)
Sequence (P51449 1-518): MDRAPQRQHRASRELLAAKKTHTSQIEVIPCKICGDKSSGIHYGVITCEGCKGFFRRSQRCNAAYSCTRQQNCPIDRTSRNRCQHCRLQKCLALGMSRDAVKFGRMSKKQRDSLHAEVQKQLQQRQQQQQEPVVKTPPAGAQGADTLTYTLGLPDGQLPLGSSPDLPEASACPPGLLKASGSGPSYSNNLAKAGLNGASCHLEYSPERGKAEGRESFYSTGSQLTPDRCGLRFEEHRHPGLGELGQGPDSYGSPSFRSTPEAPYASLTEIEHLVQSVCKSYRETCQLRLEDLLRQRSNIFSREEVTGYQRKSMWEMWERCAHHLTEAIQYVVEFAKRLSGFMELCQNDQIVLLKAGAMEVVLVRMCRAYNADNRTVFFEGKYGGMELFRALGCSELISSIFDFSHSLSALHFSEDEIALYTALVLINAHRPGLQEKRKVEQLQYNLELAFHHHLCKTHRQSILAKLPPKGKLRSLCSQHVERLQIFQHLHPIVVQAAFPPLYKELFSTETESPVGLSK
Assay: RORγ Gal4 Reporter Gene Assay in 293T cells (firefly and renilla luciferase)
Format: cell-based, human
Details: third value of the cell; Gal4 reporter gene assay in 293T cells, renilla normalised luciferase
Quick rule: pIC50 (REN) of at least 7 means class 1, below that means class 0.

>  <compound>
Cc1c(C(=O)NCCc2noc(=O)[nH]2)cc(-c2ccc(S(=O)(=O)NC(C)(C)C)c(C(F)(F)F)c2)n1CC1CCCCC1

>  <label_class>
class 0

$$$$
>  <compound>
Cc1c(C(=O)NC2CCOCC2)cc(-c2ccc(S(=O)(=O)NC(C)(C)C)c3sccc23)n1CC1CCCCC1

>  <label_class>
class 1

$$$$
>  <compound>
Cc1c(C(=O)NCC(C)(C)C(=O)NS(C)(=O)=O)cc(-c2cc(C(C)(C)C)c3c(c2)C2(CCO3)CC2)n1CC1CCCCC1

>  <label_class>
class 1

$$$$
>  <compound>
Cc1c(C(=O)NC2CCOCC2)cc(-c2ccc(S(=O)(=O)NC(C)(C)C)c3c(F)cccc23)n1CC1CCCCC1

>  <label_class>
class 1

$$$$
>  <compound>
Cc1c(C(=O)NC2C[S+]([O-])C2)cc(-c2cc(C(C)C)c3c(c2)C(C)(C)N(C(C)C)S3(=O)=O)n1CC1CCCCC1 (centres unmarked)

>  <label_class>
class 0

$$$$
>  <compound>
Cc1c(C(=O)NCC(C)(C)NC(=O)C(C)O)cc(-c2cc(C(C)(C)C)cc(C3(C)CC3)c2)n1CC1CCCCC1 (centres unmarked)

>  <label_class>
class 1

$$$$
>  <compound>
Cc1c(C(=O)NCC2(O)CCS(=O)(=O)CC2)cc(-c2cc(C(C)(C)O)cc(C3(C)CC3)c2)n1CC1CCCCC1

>  <label_class>
class 0

$$$$
>  <compound>
Cc1c(C(=O)NCCc2noc(=O)[nH]2)cc(-c2ccc(S(=O)(=O)NC(C)(C)C)c(C(C)(C)O)c2)n1CC1CCCCC1

>  <label_class>
class 0

$$$$
>  <compound>
Cc1c(C(=O)NCCCCCS(N)(=O)=O)cc(-c2cc(C(C)(C)C)c3c(c2)C2(CCO3)CC2)n1CC1CCCCC1

>  <label_class>
class 0

$$$$
>  <compound>
Cc1c(C(=O)NCCc2nn[nH]n2)cc(-c2ccc(S(=O)(=O)NC(C)(C)C)c(C(F)(F)F)c2)n1CC1CCCCC1

>  <label_class>
class 0

$$$$

* * *

Target: UniProt:P51449
Sequence (P51449 1-518): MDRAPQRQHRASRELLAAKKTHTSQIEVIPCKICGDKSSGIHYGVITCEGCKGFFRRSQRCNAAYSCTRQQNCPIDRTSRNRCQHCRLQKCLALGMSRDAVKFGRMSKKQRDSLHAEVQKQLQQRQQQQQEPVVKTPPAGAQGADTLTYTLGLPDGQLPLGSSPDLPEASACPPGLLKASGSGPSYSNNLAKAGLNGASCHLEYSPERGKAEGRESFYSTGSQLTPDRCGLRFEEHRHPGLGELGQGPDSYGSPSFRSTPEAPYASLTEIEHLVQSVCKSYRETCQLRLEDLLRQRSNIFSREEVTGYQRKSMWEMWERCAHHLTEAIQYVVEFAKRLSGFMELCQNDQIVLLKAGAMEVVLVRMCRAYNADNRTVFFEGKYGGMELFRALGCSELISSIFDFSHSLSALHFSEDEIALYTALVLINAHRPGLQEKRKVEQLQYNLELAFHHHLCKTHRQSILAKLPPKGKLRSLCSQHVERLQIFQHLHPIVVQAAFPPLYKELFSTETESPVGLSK
Assay: RORγ Gal4 Reporter Gene Assay in 293T cells (firefly and renilla luciferase)
Assay type: cell-based, human
observation_type: pIC50 (FF)

>  <compound>
Cc1c(C(=O)NCC(C)(C)O)cc(-c2cc(C(=O)NC(C)(C)C)cc(C(C)(C)C)c2)n1CC1CCCCC1 [15/8]

>  <result>
6.0/7.3/7.4

$$$$
>  <compound>
Cc1c(C(=O)NC2(C)CCOCC2)cc(-c2ccc(S(=O)(=O)NC(C)(C)C)c(C(F)(F)F)c2)n1CC1CCCCC1 [17/209]

>  <result>
6.7/7.3/7.6

$$$$
>  <compound>
Cc1c(C(=O)NC2CCOCC2)cc(-c2ccc(S(=O)(=O)N3CCCC(C(F)(F)F)C3)c(C(C)(C)C)c2)n1CC1CCCCC1 (stereo not drawn) [17/102]

>  <result>
6.6/6.8/6.9

$$$$
>  <compound>
Cc1c(C(=O)NCC(C)(C)O)cc(-c2cc(C(C)(C)C)c3c(c2)C2(CCO3)CC2)n1CC1CCCCC1 [1/39]

>  <result>
6.5/6.9/7.0

$$$$
>  <compound>
Cc1c(C(=O)NC[C@H]2CC[C@H](C(=O)O)CC2)cc(-c2cc(C(C)(C)C)c3c(c2)C2(CCO3)CC2)n1CC1CCCCC1 [17/59]

>  <result>
5.7/6.6/6.6

$$$$
>  <compound>
Cc1c(C(=O)NC2CCOCC2)cc(-c2ccc(C(=O)NC3CCCCC3)c(C(C)(C)C)c2)n1CC1CCCCC1 [6/6]

>  <result>
6.2/6.8/6.7

$$$$
>  <compound>
Cc1c(C(=O)NCC(C)(C)C(N)=O)cc(-c2cc(C(C)(C)C)cc(C(C)(C)C)c2)n1CC1CCCCC1 [1/3]

>  <result>
6.4/7.6/7.5

$$$$
>  <compound>
Cc1c(C(=O)NC2CCOCC2)cc(-c2ccc(C(N)=O)c(C(C)(C)C)c2)n1CC1CCCCC1 [6/3]

>  <result>
5.1/5.9/5.7

$$$$
>  <compound>
Cc1c(C(=O)NCCN(C)C)cc(-c2cc(C(C)(C)C)cc(C(C)(C)C)c2)n1CC1CCCCC1 [1/56]

>  <result>
5.5/<4.7/<4.7

$$$$
>  <compound>
Cc1c(C(=O)NC2COC2)cc(-c2cc(OCC(C)C)nc(C(C)(C)C)c2)n1CC1CCCCC1 [1/121]

>  <result>
6.9/7.0/7.2

$$$$
>  <compound>
Cc1c(C(=O)NCC(C)(C)O)cc(-c2cc(C(C)(C)C)cc(C(C)(C)C)c2OC(F)F)n1CC1CCCCC1 [17/191]

>  <result>
5.9/7.0/6.9

$$$$
>  <compound>
Cc1c(C(=O)NCC(C)(C)NS(C)(=O)=O)cc(-c2cc(C(C)(C)C)cc(C(C)(C)C)c2)n1CC1CCCCC1 [1/4]

>  <result>
6.5/7.5/7.6

$$$$
>  <compound>
CCN(C(C)(C)C)S(=O)(=O)c1ccc(-c2cc(C(=O)NC3CCOCC3)c(C)n2CC2CCCCC2)cc1C(F)(F)F [17/85]

>  <result>
<4.7/7.4/7.5

$$$$
>  <compound>
Cc1c(C(=O)NCC(C)(C)N)cc(-c2cc(C(C)(C)C)c3c(c2)C2(CCO3)CC2)n1CC1CCCCC1.Cl [17/27]

>  <result>
5.6/6.3/6.5

$$$$
>  <compound>
Cc1c(C(=O)NC2CCOCC2)cc(-c2ccc(S(=O)(=O)NC(C)(C)C)c(Cl)c2Cl)n1CC1CCCCC1 [17/276]

>  <result>
6.8/7.9/8.0

$$$$
